# test-system: B1 bradykinin receptor (Rattus norvegicus, UniProt P97583)
# Sequence (P97583 whole entry): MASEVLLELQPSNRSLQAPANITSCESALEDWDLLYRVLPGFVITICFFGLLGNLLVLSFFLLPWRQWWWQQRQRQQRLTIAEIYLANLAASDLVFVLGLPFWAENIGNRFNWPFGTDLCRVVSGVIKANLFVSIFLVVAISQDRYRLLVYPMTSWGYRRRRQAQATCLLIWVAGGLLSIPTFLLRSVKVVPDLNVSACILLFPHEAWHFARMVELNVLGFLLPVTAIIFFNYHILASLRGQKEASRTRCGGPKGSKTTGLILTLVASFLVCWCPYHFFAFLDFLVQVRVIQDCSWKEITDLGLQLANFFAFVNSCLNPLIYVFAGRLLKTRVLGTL
# experimental-protocol: Antagonistic activity against Bradykinin receptor B1 of rat ileum longitudinal smooth muscle.
# Assay type: functional, tissue-based
# condition-notes: read-out: pA2 (converted)
Where a SMILES comes first, the peptide text is derived from it. [ ]: non-standard residue; d: D form. Oic = O=C(O)[C@@H]1C[C@@H]2CCCC[C@@H]2N1; d2Nal = N[C@H](Cc1ccc2ccccc2c1)C(=O)O; Hyp = O=C(O)[C@@H]1C[C@@H](O)CN1; dTic = O=C(O)[C@H]1Cc2ccccc2CN1; 2Thi = N[C@@H](Cc1cccs1)C(=O)O
value-kind: Kb

1) NCCCC[C@H](NC(=O)[C@@H](N)CCCCN)C(=O)N[C@@H](CCCN=C(N)N)C(=O)NCCCCCCCCCCC(=O)N[C@@H](CO)C(=O)N1Cc2ccccc2C[C@@H]1C(=O)N1[C@H](C(=O)O)C[C@@H]2CCCC[C@@H]21
794 nM
2) CC[C@H](C)[C@H](NC(=O)[C@@H](Cc1ccc2ccccc2c1)NC(=O)[C@H](CO)NC(=O)CCCCCCCCCCNC(=O)[C@H](CCCN=C(N)N)NC(=O)[C@H](CCCCN)NC(C)=O)C(=O)O
100 nM
3) N=C(N)NCCC[C@@H](N)C(=O)N[C@@H](CCCNC(=N)N)C(=O)N1CCC[C@H]1C(=O)N1C[C@H](O)C[C@H]1C(=O)NCC(=O)N[C@@H](Cc1cccs1)C(=O)N[C@@H](CO)C(=O)N1Cc2ccccc2C[C@@H]1C(=O)N1[C@H](C(=O)O)C[C@@H]2CCCC[C@@H]21 (H-[dR]RP[Hyp]G[2Thi]S[dTic][Oic]-OH)
158 nM

Fill in the blank: the reported Kb of "NC(N)=NCCC[C@@H](N)C(=O)N[C@@H](CCCN=C(N)N)C(=O)NCC(=O)NC1(C(=O)NCC(=O)N[C@@H](CO)C(=O)N2Cc3ccccc3C[C@@H]2C(=O)N2[C@H](C(=O)O)C[C@@H]3CCCC[C@@H]32)CCCCCC1" is ____. 6310 nM

Fill in the blank: the reported Kb of NCCCCC(N)C(=O)N[C@@H](CCCN=C(N)N)C(=O)NCCCCCCCCCCC(=O)N[C@@H](CO)C(=O)N1Cc2ccccc2C[C@@H]1C(=O)N1[C@H](C(=O)O)C[C@@H]2CCCC[C@@H]21 (stereo in doubt) is ____. 1000 nM

Fill in the blank: the reported Kb of CC[C@H](C)[C@H](NC(=O)[C@@H](Cc1ccc2ccccc2c1)NC(=O)[C@H](CO)NC(=O)[C@H](Cc1ccccc1)NC(=O)CNC(=O)[C@@H]1CCCN1C(=O)[C@@H]1CCCN1C(=O)[C@H](CCCN=C(N)N)NC(=O)[C@H](CCCCN)NC(C)=O)C(=O)O (Ac-KRPPGFS[d2Nal]I-OH) is ____. 63.1 nM

Fill in the blank: the reported Kb of "NC(N)=NCCC[C@@H](N)C(=O)N[C@@H](CCCN=C(N)N)C(=O)NCCCCCCCCCCC(=O)N[C@@H](CO)C(=O)N1Cc2ccccc2C[C@@H]1C(=O)N1[C@H](C(=O)O)C[C@@H]2CCCC[C@@H]21" is ____. 79.4 nM

Fill in the blank: the reported Kb of "NC(N)=NCCC[C@@H](N)C(=O)N[C@@H](CCCN=C(N)N)C(=O)NC1(C(=O)N[C@@H](CO)C(=O)N2Cc3ccccc3C[C@@H]2C(=O)N2[C@H](C(=O)O)C[C@@H]3CCCC[C@@H]32)CCCCCCC1" is ____. 3160 nM
